Attribution: patent US20040018971A1

Biological target: T1, HLA-A*0101 (purified HLA class I molecule) (human)
T1 construct: also called HLA-A1
Assay: competition with 125I-labelled standard peptide on purified HLA-A*0101, gel filtration
Assignment: determine reported relative binding ratio (IC50 of standard peptide / IC50 of test peptide) for the given binders.
State the value with its unit after it.

Challenge: # get_value(readout='relative binding ratio (IC50 of standard peptide / IC50 of test peptide)', item= DMGDLVDAEEY [HER2/neu peptide, position 1013, 11 amino acids] )
Response given: 0.0027 ratio

Challenge: What about this binder? RVLQGLPREY [HER2/neu peptide, position 545, 10 amino acids]
Response given: 0.0015 ratio

Challenge: What about this binder? PLTCSPQPEY [HER2/neu peptide, position 1130, 10 amino acids]
Response given: 0.0072 ratio

Challenge: What about this binder? PTHDPSPLQRY (H is used here) [HER2/neu peptide, position 1102, 11 amino acids]
Response given: 0.016 ratio

Challenge: What about this binder? YVMAGVGSPY [HER2/neu peptide, position 772, 10 amino acids]
Response given: 1.1 ratio

Challenge: What about this binder? VVQGNLELTY [HER2/neu peptide, position 55, 10 amino acids]
Response given: 0.018 ratio

Challenge: What about this binder? ETLEEITGYLY (also called Her2/neu.401) [HER2/neu peptide, position 401, 11 amino acids]
Response given: 0.44 ratio

Challenge: What about this binder? ELMTFGAKPY [HER2/neu peptide, position 914, 10 amino acids]
Response given: 0.0082 ratio
